# Test system: Noggin (protein binding on small-molecule microarray)
# assayProtocol: Noggin binders on small-molecule microarray, primary screen, biochemical, 635/667 nm fluorescence (AID 1095);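 note: score merges 667 nm feature fluorescence with signal to noise over triplicate slides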
# experimentalParameters: 635 nm fluorescence, higher = more signal
Overview of reported composite z-score across a group of compounds:
Form rule: numeric answer, no unit written next to it.

Reference set, count: 3
>  <compound>
CCOC(=O)C[C@H]1[C@H](OC(=O)c2ccccc2-c2ccccc2)[C@@H](NC(=O)Cc2ccc(OC)cc2)c2cc(OCCCO)ccc2N1C(=O)c1ccccc1

>  <composite z-score>
-0.337

$$$$
>  <compound>
Cc1ccc(S[C@]2(C(=O)NCC(C)C)CC(=O)N(Cc3ccccc3Cl)[C@@H]2c2ccc(CO)cc2)cc1

>  <composite z-score>
-1.98

$$$$
>  <compound>
COCCOC(=O)N1C(=O)[C@@]2(c3cc(C#CC4=CCCCC4)ccc31)[C@H](C(=O)N1CCc3cc(OC)c(OC)cc3C1)[C@H]1C(=O)O[C@H](c3ccccc3)[C@H](c3ccccc3)N1[C@@H]2c1ccccc1OCCO

>  <composite z-score>
1.16

$$$$

Q: Fill in the blank: the reported composite z-score of CC(C)N1CC=CC23O[C@@H]4C=CCOC(=O)[C@@H]4[C@H]2C(=O)N(CCO)[C@@H]3C1=O (some centres not stated) is ____.
Ans: -0.431

Q: Fill in the blank: the reported composite z-score of CCOC(=O)C1=C[C@@H](CC)N(S(=O)(=O)c2ccc(C)cc2)[C@H]1c1ccccc1 is ____.
Ans: 0.13

Q: Fill in the blank: the reported composite z-score of COCCOC(=O)N1C(=O)[C@@]2(c3cc(C#CCC(C(=O)OC)C(=O)OC)ccc31)[C@H](c1ccccc1OCCO)N1[C@H](c3ccccc3)[C@H](c3ccccc3)OC(=O)[C@H]1[C@@H]2C(=O)N1CCc2cc(OC)c(OC)cc2C1 is ____.
Ans: 1.64

Q: Fill in the blank: the reported composite z-score of COc1ccc(CCN2C(=O)[C@@]3(Cc4ccccc42)c2ccccc2C(=O)N(Cc2ccccc2Cl)[C@H]3c2ccc(CO)cc2)cc1 is ____.
Ans: -1.05
